System: SRPK2;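 further: KINOMEscan kinase panel screen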
Conditions: concentration: 1 μM, replicates: in singlicate; n = 1
Measurement name: %Inh
Kindly report the value followed by its unit.

stdin: Form field: reported %Inh of Nc1ncnc2scc(-c3ccc(NC(=O)Cc4cc(F)ccc4F)cc3)c12.O=C(O)C(F)(F)F
stdout: 25%

stdin: Form field: reported %Inh of CCNc1nccc(-c2c(-c3ccc(F)cc3)ncn2C2CCN(C)CC2)n1
stdout: 0%

stdin: Form field: reported %Inh of COC(=O)Nc1nc2cc(Oc3ccc(NC(=O)Nc4cccc(SC)c4)cc3)ccc2[nH]1.Cl
stdout: 17%

stdin: Form field: reported %Inh of Cl.Cl.NC(CNC(=O)c1cc(Br)c(-c2ccnc3[nH]ccc23)s1)c1ccccc1 (centres unmarked)
stdout: 80%

stdin: Form field: reported %Inh of Cc1cccc(Nc2nc(N[C@H]3CCCC[C@H]3N)ncc2C(N)=O)c1.Cl
stdout: 0%
